Each entry below carries its recorded t½.
biological target: T1, Ebola virus GP with a C-terminal polyhistidine tag (Sino Biologicals, Catalog #40442-V08B1) (Ebola virus, UniProt P87666 33-650); assay: SPR 25C, mAb captured
T1 construct: also called EbolaGP.his; Ebola virus GP.his

[
  {
    "Binder": "H1H17223P (antibody, V domains shown) VH: EVQLVESGGGLVQPGGSLRLSCAASGFTFRTYDMHWVRQATGKGLEWVSAIGTAGDTYYPGSVKGRFTISRENAKNSLYLQMNSLRAGDTAVYYCARTIFGVVLTFDYWGQGTLVTVSS VL: DIQMTQSPSSLSASVGDRVTITCRASQSISSSLNWYQQKPGKAPKLLIYAASSLHSGVPSRFSGSGSGTDFTLTISSLQPEDFATYYCQQTYSIPPTTFGQGTKVEIK",
    "t½": "3.17 h"
  }
]

Then this binder:
Look at this binder and give its reported t½. H1H17142P (antibody, V domains shown) VH: EVQLVESGGGLVQPGGSLRLSCAASGFTFSSYAMTWVRQAPGKGLEWVSSISGSGTSTYYADSVKGRFTISRDNSKNTLYLQMNSLRAEDTALYYCSRDIYTWNFLSLIGGMDVWGQGTTVTVSS VL: DIQMTQSPSSLSASVGDRVTITCRASQGIRIDLGWYQQKPGKAPNRLIYAASSLQGGVPSRFSGSGSGTEFTLTISSLQPEDFATYYCLQQNSYPWTFGQGTKVEIK
6.84 h
